Molecular target: Kappa-type opioid receptor (Homo sapiens)
Sequence (P41145 whole entry): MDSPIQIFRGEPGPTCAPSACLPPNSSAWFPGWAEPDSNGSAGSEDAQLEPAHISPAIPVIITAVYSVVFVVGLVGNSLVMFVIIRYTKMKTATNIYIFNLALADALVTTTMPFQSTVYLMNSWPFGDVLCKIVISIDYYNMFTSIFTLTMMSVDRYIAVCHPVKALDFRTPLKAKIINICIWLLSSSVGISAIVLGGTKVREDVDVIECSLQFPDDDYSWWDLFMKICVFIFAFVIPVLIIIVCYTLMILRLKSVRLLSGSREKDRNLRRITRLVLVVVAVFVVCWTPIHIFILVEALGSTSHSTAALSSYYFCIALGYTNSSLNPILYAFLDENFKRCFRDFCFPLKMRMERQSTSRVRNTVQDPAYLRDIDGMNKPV
Test: Agonist activity at recombinant human kappa-type opioid receptor expressed in HEK293 cells at 1 uM after 30 mins by [35S]GTPgammaS binding assay
Type: functional, cell-based
measured-metric: Activity (%)
A number alone suffices; assume %.

Problem: Any idea what Activity came out for CNC(=O)C(=O)N1CCN(C(=O)Cc2ccc(Cl)c(Cl)c2)[C@@H]2[C@@H](N3CCCC3)CCC[C@@H]21 on Kappa-type opioid receptor (Homo sapiens)?
Result: 104

Problem: Moving on to the next compound: CC(C)OC(=O)CN1CCN(C(=O)Cc2ccc(Cl)c(Cl)c2)[C@@H]2[C@@H](N3CCCC3)CCC[C@@H]21
Result: 94

Problem: Moving on to the next compound: COC(=O)N1CCN(C(=O)Cc2ccc(Cl)c(Cl)c2)[C@@H]2[C@@H](N(C)C)CCC[C@@H]21
Result: 96

Problem: Moving on to the next compound: COC(=O)N1CCN(C(=O)Cc2cccc(Cl)c2)[C@@H]2[C@@H](N3CC[C@H](O)C3)CCC[C@@H]21
Result: 102

Problem: Moving on to the next compound: CN(C)S(=O)(=O)N1CCN(C(=O)Cc2ccc(Cl)c(Cl)c2)[C@@H]2[C@@H](N3CCCC3)CCC[C@@H]21
Result: 105

Problem: Moving on to the next compound: CC(C)NC(=O)N1CCN(C(=O)Cc2ccc(Cl)c(Cl)c2)[C@@H]2[C@@H](N3CCCC3)CCC[C@@H]21
Result: 100

Problem: Moving on to the next compound: COC(=O)N1CCN(C(=O)Cc2ccc(Cl)c(Cl)c2)[C@@H]2[C@@H](N3CC[C@H](O)C3)CCC[C@@H]21
Result: 113

* * *

Organism: Rattus norvegicus
Experiment: Displacement of [3H]-DTG from sigma 2 receptor in rat liver membranes at 1 uM after 120 mins by scintillation counting
Format: cell membranes
Conditions: Membrane
measured-metric: inhibition (%)
A number alone suffices; assume %.

Please review the following examples before continuing.
| smiles-str | inhibition, % |
| --- | --- |
| COC(=O)N1CCN(C(=O)Cc2ccc(Cl)c(F)c2)[C@@H]2[C@@H](N3CC[C@H](O)C3)CCC[C@@H]21 | 0 |
| O=C(Cc1ccc(Cl)c(Cl)c1)N1CCN[C@H]2CCC[C@H](N3CCCC3)[C@H]21 | 0 |

Problem: Entry COC(=O)CN1CCN(C(=O)Cc2ccc(Cl)c(Cl)c2)[C@@H]2[C@@H](N3CCCC3)CCC[C@@H]21 has what inhibition?
Result: 0

Problem: Moving on to the next compound: CS(=O)(=O)N1CCN(C(=O)Cc2ccc(Cl)c(Cl)c2)[C@@H]2[C@@H](N3CC[C@H](O)C3)CCC[C@@H]21
Result: 15

Problem: Moving on to the next compound: CS(=O)(=O)N1CCN(C(=O)Cc2ccc(F)c(Cl)c2)[C@@H]2[C@@H](N3CC[C@H](O)C3)CCC[C@@H]21
Result: 3

Problem: Moving on to the next compound: COC(=O)N1CCN(C(=O)Cc2ccc(F)c(Cl)c2)[C@@H]2[C@@H](N3CC[C@H](F)C3)CCC[C@@H]21
Result: 0

Problem: Moving on to the next compound: COC(=O)N1CCN(C(=O)Cc2ccc(C(F)(F)F)c(Cl)c2)[C@@H]2[C@@H](N3CC[C@H](O)C3)CCC[C@@H]21
Result: 5

Problem: Moving on to the next compound: CC(C)OC(=O)CN1CCN(C(=O)Cc2ccc(Cl)c(Cl)c2)[C@@H]2[C@@H](N3CCCC3)CCC[C@@H]21
Result: 26
